Data origin, for the record: PubChem BioAssay AID1159580

Test: chemical genetic growth profiling, strain panel (AID 1159580);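 note: tested at 20 µM; growth read once vehicle control cultures reached saturation at 30 °C; 1 = growth at the plate median or of vehicle wells; lower values mean less growth of the strain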
Settings: S. cerevisiae deletion strains, growth OD, locus YMR307W, strain GAS1, stronger effect = lower value
The campaign covered roughly 5,500 compounds. About 2,000 (36%) were called active. Not shown: some 18% with an inconclusive outcome. Some of the results follow.
Experimental Readout: normalized growth

>  <Compound>
OC[C@@H]1CCCN2CCCC[C@H]12

>  <Experimental Readout>
normalized growth

>  <Measurement>
1

$$$$
>  <Compound>
COC(=O)c1cc(OC)c(OC)cc1-n1c(C)ccc1C

>  <Experimental Readout>
normalized growth

>  <Measurement>
0.948

$$$$
>  <Compound>
C=C[C@](C)(O)CCC=C(C)C

>  <Experimental Readout>
normalized growth

>  <Measurement>
1.03

$$$$
>  <Compound>
CC(=O)O[C@@H]1C[C@@]2(C)[C@H](c3ccoc3)C[C@H]3O[C@]32[C@]2(C)C(=O)C(O)=C3C(C)(C)C(=O)C=C[C@]3(C)C12 (stereo partly drawn)

>  <Experimental Readout>
normalized growth

>  <Measurement>
0.61

$$$$
>  <Compound>
CC1(C)C(=O)C=C[C@@]2(C)C1=C(O)C(=O)[C@]1(C)C2CC[C@@]2(C)[C@H](c3ccoc3)C[C@H]3O[C@]321 (stereo partly drawn)

>  <Experimental Readout>
normalized growth

>  <Measurement>
0.502

$$$$
>  <Compound>
CNc1ccccc1C(=O)O

>  <Experimental Readout>
normalized growth

>  <Measurement>
1.08

$$$$
>  <Compound>
O=C(COC(=O)c1ccccc1Nc1cccc(F)c1)c1ccccc1

>  <Experimental Readout>
normalized growth

>  <Measurement>
0.882

$$$$
>  <Compound>
N=c1c[n+](N2CCOCC2)[n-]o1

>  <Experimental Readout>
normalized growth

>  <Measurement>
1.01

$$$$
>  <Compound>
Cc1occc(=O)c1O

>  <Experimental Readout>
normalized growth

>  <Measurement>
0.968

$$$$
>  <Compound>
COC(=O)C[C@H]1C(C)(C)C(=O)[C@@H]2CC3=C4CC(=O)O[C@@H](c5ccoc5)[C@]4(C)CCC3[C@@]1(C)C2=O (stereo partly drawn)

>  <Experimental Readout>
normalized growth

>  <Measurement>
0.96

$$$$
>  <Compound>
C=CC(C1=CC(=O)C(OC)=CC1=O)c1ccc(OC)cc1 (stereo not drawn)

>  <Experimental Readout>
normalized growth

>  <Measurement>
0.793

$$$$
>  <Compound>
CC(=O)O[C@H]1C[C@@H](OC(C)=O)C(C)(C)C2C[C@@H](OC(C)=O)[C@@]3(C)C4=CC(=O)O[C@@H](c5ccoc5)[C@]4(C)CCC3[C@]21C (stereo partly drawn)

>  <Experimental Readout>
normalized growth

>  <Measurement>
1.05

$$$$
>  <Compound>
O=C(OC1Cc2c(O)cc(O)cc2OC1c1cc(O)c(O)c(O)c1-c1c(C2Oc3cc(O)cc(O)c3CC2OC(=O)c2cc(O)c(O)c(O)c2)cc(O)c(O)c1O)c1cc(O)c(O)c(O)c1 (stereo not drawn)

>  <Experimental Readout>
normalized growth

>  <Measurement>
1.08

$$$$
>  <Compound>
Cc1occc(=O)c1/C=C/O

>  <Experimental Readout>
normalized growth

>  <Measurement>
1.02

$$$$
>  <Compound>
CSc1c(C#N)c(-c2cccs2)nn1C

>  <Experimental Readout>
normalized growth

>  <Measurement>
0.983

$$$$
>  <Compound>
O=C1O[C@H](C(O)CO)C(O)=C1O (stereo partly drawn)

>  <Experimental Readout>
normalized growth

>  <Measurement>
1.01

$$$$
>  <Compound>
O=C(O[C@@H]1Cc2c(O)cc(O)cc2O[C@@H]1c1cc(O)c(O)c(O)c1-c1c([C@H]2Oc3cc(O)cc(O)c3C[C@H]2O)cc(O)c(O)c1O)c1cc(O)c(O)c(O)c1

>  <Experimental Readout>
normalized growth

>  <Measurement>
0.343

$$$$
>  <Compound>
COC(=O)c1cc([N+](=O)[O-])ccc1NC(C)=O

>  <Experimental Readout>
normalized growth

>  <Measurement>
0.998

$$$$
>  <Compound>
C=CC(C1=CC(=O)C(OC)=CC1=O)c1ccccc1 (stereo not drawn)

>  <Experimental Readout>
normalized growth

>  <Measurement>
0.864

$$$$
>  <Compound>
CC(C)=CCC[C@](C)(O)C1CC=C(C)CC1 (stereo partly drawn)

>  <Experimental Readout>
normalized growth

>  <Measurement>
1.13

$$$$
>  <Compound>
O=[N+]([O-])c1ccc(O)c([N+](=O)[O-])c1

>  <Experimental Readout>
normalized growth

>  <Measurement>
0.819

$$$$
>  <Compound>
NCCCC[C@H](N[C@@H](CCc1ccccc1)C(=O)O)C(=O)N1CCC[C@H]1C(=O)O

>  <Experimental Readout>
normalized growth

>  <Measurement>
1.05

$$$$
>  <Compound>
O=[N+]([O-])c1cc([As](=O)(O)O)ccc1O

>  <Experimental Readout>
normalized growth

>  <Measurement>
1.05

$$$$
>  <Compound>
O=C(O)CCCCC1CCSS1 (stereo not drawn)

>  <Experimental Readout>
normalized growth

>  <Measurement>
1.02

$$$$
>  <Compound>
NC(=S)N/N=C\c1cc(F)cc(F)c1

>  <Experimental Readout>
normalized growth

>  <Measurement>
0.574

$$$$
>  <Compound>
C[n+]1cccc(C(=O)[O-])c1

>  <Experimental Readout>
normalized growth

>  <Measurement>
1.02

$$$$
>  <Compound>
Cc1cccc(C(=O)NCN2CCN(c3ccccc3C#N)CC2)c1

>  <Experimental Readout>
normalized growth

>  <Measurement>
1.01

$$$$
>  <Compound>
CCOC(=O)N/N=C\c1cccs1

>  <Experimental Readout>
normalized growth

>  <Measurement>
1.02

$$$$
>  <Compound>
CCCc1occc(=O)c1/C=C/O

>  <Experimental Readout>
normalized growth

>  <Measurement>
0.94

$$$$
>  <Compound>
O=C(N/N=C\c1cccs1)c1ccccc1CO

>  <Experimental Readout>
normalized growth

>  <Measurement>
1

$$$$
>  <Compound>
CCn1nc(C)c(Br)c1-c1nc(-c2ccc(C(F)(F)F)cc2)no1

>  <Experimental Readout>
normalized growth

>  <Measurement>
1.15

$$$$
>  <Compound>
COC(=O)Oc1ccccc1C(=O)O

>  <Experimental Readout>
normalized growth

>  <Measurement>
1.06

$$$$
>  <Compound>
CCSC(N)=Nc1ccc(C(F)(F)F)cc1

>  <Experimental Readout>
normalized growth

>  <Measurement>
1

$$$$
>  <Compound>
CN1CCC(c2c[nH]c3ccc(O)cc23)CC1

>  <Experimental Readout>
normalized growth

>  <Measurement>
0.988

$$$$
>  <Compound>
Oc1c(I)cc(I)c2cccnc12

>  <Experimental Readout>
normalized growth

>  <Measurement>
0.145

$$$$
>  <Compound>
CO[C@H]1/C=C/O[C@@]2(C)Oc3c(C)c(O)c4c(O)c(c(/C=N/N5CCN(C)CC5)c(O)c4c3C2=O)NC(=O)/C(C)=C\C=C\C(C)[C@H](O)[C@@H](C)[C@@H](O)[C@@H](C)[C@@H](OC(C)=O)[C@@H]1C (stereo partly drawn)

>  <Experimental Readout>
normalized growth

>  <Measurement>
0.927

$$$$
>  <Compound>
O=[N+]([O-])c1ccc2nc(N3CCNCC3)ccc2c1

>  <Experimental Readout>
normalized growth

>  <Measurement>
1

$$$$
>  <Compound>
CCC[C@H]1CC2=C(C[C@@H](CC)CC3=C1C(=O)OC3=O)C(=O)OC2=O

>  <Experimental Readout>
normalized growth

>  <Measurement>
0.947

$$$$
